tested on: Phakopsora pachyrhizi; test: Asian Soybean Rust fungicidal activity (PHAKPA); details: Phakopsora pachyrhizi, in Glycine max, 72 h, read-out: PHAKPA 3DC % Control rating, soybean, high volume, 25 ppm, 3 Day Curative
measured.attribute: pest or weed control at 25 ppm

molecule: COc1ccnc(C(=O)N[C@@H](C)C(=O)O[C@@H](C)C(Oc2ccc(F)cc2)c2ccc(F)cc2)c1OCOC(C)=O (stereo partly drawn) [Example 238]
pest or weed control at 25 ppm: < 80%

API: the following record is the query input.
Report pest or weed control at 25 ppm on Phakopsora pachyrhizi for this entry: COc1cc(F)ccc1[C@@H](OC(=O)C(C)(C)C)[C@H](C)OC(=O)[C@H](C)NC(=O)c1nccc(OC)c1OC(C)=O [Example 296]
< 80%
